- Test system: SN12C renal
- protocol: NCI tumour cell line growth inhibition, 48 h
reported metric: TGI

Prompt line: Return value of TGI for input COc1cc(O)c2c(=O)c3ccccc3n(C)c2c1 , no commentary.
Response line: > 100 µM

Prompt line: Recall and state the measured TGI for Cc1oncc1C(=O)Nc1ccc(C(F)(F)F)cc1 .
Response line: > 100 µM

Prompt line: Return TGI for the following compound: C/C(=N/NC(=S)N1CCCCCC1)c1ccccc1O
Response line: 40.9 µM

Prompt line: Please look at this compound and report its TGI: C=CCOC1=C2CC[C@H](O)[C@@]2(C)CCC1=O
Response line: > 100 µM

Prompt line: Give me measured TGI, please, for this compound: CCOC(=O)[C@H](Cc1ccccc1)NC(=O)c1nc[nH]c1[N+](=O)[O-]
Response line: > 100 µM

Prompt line: Please report TGI for the following compound: O=C(CN1CCOCC1)c1ccc2[nH]c(=O)oc2c1
Response line: > 100 µM

Prompt line: Return the recorded TGI value; entry: O=C1OCC2=C1C(c1ccccc1)c1cc3c(cc1N2CCO)CCC3 (stereo unspecified)
Response line: > 25 µM

Prompt line: State, in one line, measured TGI of CC(C)(C)OC(=O)N1C[C@H](CC(=O)OCc2ccccc2)C[C@H]1C(=O)OCC(Cl)(Cl)Cl
Response line: > 50 µM

Prompt line: Give the measured TGI for COc1c(Nc2ncc(Cl)c(N[C@@H]3[C@H]4C=CC(C4)[C@@H]3C(N)=O)n2)ccc2c1CC[C@@H](N1CCOCC1)CC2
Response line: 29.2 µM

Prompt line: Answer with the recorded TGI for the compound listed here: COc1ccc(NC(=O)CSc2nnc(Cc3ccccc3)o2)cc1
Response line: > 100 µM

Prompt line: State, in one line, measured TGI of O=c1oc2c(Br)c(O)c(Br)cc2c2ccccc12
Response line: 84.4 µM

----------
- Tested on: MDA-MB-435
- protocol: NCI tumour cell line growth inhibition, 48 h
Give TGI for every item shown.

Prompt line: Tell me measured TGI for C[C@@]12C[C@@H](c3ccccc3O1)N1CCSC1=N2 please.
Response line: > 100 µM

Prompt line: Indicate its recorded TGI; the compound in question is COc1cc(-c2nn(C)nc2-c2cc3ccccc3s2)cc(OC)c1OC
Response line: 0.0995 µM

Prompt line: Name the recorded TGI of the compound listed here: CC(=O)Oc1ccn2nc(C)c(Cc3c(C)nn4ccc(OC(C)=O)cc34)c2c1
Response line: 50.4 µM

Prompt line: Fill in reported TGI for this entry: COc1ccc(Nc2nc(NCc3ccccc3)c3ccccc3n2)cc1
Response line: 3.85 µM

Prompt line: Look up TGI of COc1ccccc1/C=C1\CCC(CN(C)C)C1=O (configuration not stated) and report it.
Response line: 25.2 µM

Prompt line: Return reported TGI. Input compound: NCCCCN
Response line: 31.4 µM

Prompt line: Provide one value: measured TGI of O=[n+]1cnn([O-])c2ccccc21
Response line: > 100 µM

Prompt line: State, in one line, measured TGI of Fc1ccc(C2(CCCN3CCc4[nH]c5cc(F)ccc5c4C3)OCCO2)cc1
Response line: 26.5 µM

Prompt line: Provide measured TGI value, entry: Cc1cc(O)c2c(c1O)C(=O)c1c(O)ccc(O)c1C2=O
Response line: > 100 µM

Prompt line: Look up TGI of O=C(Nc1cccnc1)c1cccs1 and report it.
Response line: > 100 µM

Prompt line: Fill in reported TGI for this entry: Nc1ccc(S(=O)(=O)Nc2nc3ccccc3nc2Nc2ccc(S(N)(=O)=O)cc2)cc1
Response line: > 100 µM

Prompt line: Give recorded TGI. CC(C)(C)OC(=O)N1C[C@H](CC(=O)OCc2ccccc2)C[C@H]1C(=O)OCC(Cl)(Cl)Cl
Response line: > 50 µM

----------
- Test system: SW-620 colon
- protocol: NCI tumour cell line growth inhibition, 48 h
reported metric: TGI

Prompt line: Indicate its recorded TGI; the molecule in question is C/C(=N/NC(=S)N1CCCCCC1)c1ccccc1O
Response line: > 100 µM

Prompt line: Indicate its recorded TGI; the molecule in question is O=C(O)C(F)(OC(F)(F)C(F)(F)C(F)(F)F)C(F)(F)F (configuration not stated)
Response line: > 100 µM

Prompt line: Quickly give me recorded TGI for O=C(c1ccc(F)c(F)c1Nc1ccc(I)cc1F)N1CC(O)([C@H]2CCCCN2)C1
Response line: 15 µM

Prompt line: Specify measured TGI for Nc1nn(C(=O)Nc2ccc(Cc3ccccc3)cc2)c2ccc(Cl)cc12 .
Response line: 54.3 µM

Prompt line: Output measured TGI for this item: O=C(COC(c1ccc(F)cc1)c1ccc(F)cc1)N1CCN(CCCc2ccccc2)CC1
Response line: > 100 µM

Prompt line: Fill in reported TGI for this entry: COc1ccc(Cc2cc(OC)c(OC)c(OC)c2)cc1O
Response line: > 100 µM

Prompt line: Return the recorded TGI value; entry: NS(=O)(=O)c1cc(S(N)(=O)=O)c(NC(=O)Nc2ccc(Cl)c(Cl)c2)c(Cl)c1Cl
Response line: > 100 µM

Prompt line: Give reported TGI value for O=[N+]([O-])c1ccc(Oc2cccnc2)c([N+](=O)[O-])c1
Response line: 12.5 µM

Prompt line: Kindly indicate its recorded TGI. Item: O=C(O)c1ccc([N+](=O)[O-])c(P(=O)(O)O)c1
Response line: > 100 µM

Prompt line: # return recorded TGI for entry CN(C)C/C=C(/c1ccc(Br)cc1)c1cccnc1
Response line: > 100 µM

Prompt line: Supply TGI value. Item: Cn1nc(-c2ccccc2)c(C(=O)/C=C/c2ccccc2)c(N2CCCCC2)c1=O
Response line: > 100 µM

Prompt line: Determine from records and report TGI for CNC(=O)c1cc(Oc2ccc3nc(NC(=O)c4cc(C(F)(F)F)cc(C(F)(F)F)c4)sc3c2)ccn1
Response line: 63.8 µM

Prompt line: Report TGI for CC(=O)N(/N=C\c1ccc([N+](=O)[O-])cc1)c1ccccc1
Response line: > 100 µM

Prompt line: In one line, give reported TGI of the entry O=CC(O)C(O)C(O)COc1cc(CO)cc2c1C(=O)c1ccccc1C2=O (configuration not stated) .
Response line: > 100 µM

Prompt line: Please indicate TGI recorded for S=c1cn[nH]c2ccc(Br)cc12
Response line: > 100 µM

Prompt line: Tell me its TGI given C=CCOC1=C2CC[C@H](O)[C@@]2(C)CCC1=O as the entry.
Response line: > 100 µM

Prompt line: Write down TGI measured for item Nc1ccccc1C#Cc1ccccc1C#Cc1ccccc1N
Response line: 18.4 µM

Prompt line: Report measured TGI; entry is CCCCCCOC(=O)C(N)Cc1ccc(OC)cc1 (configuration not stated)
Response line: > 100 µM

Prompt line: Specify reported TGI for the molecule shown: COC(=O)C(C(=O)C(=O)Nc1c(Cl)cc([N+](=O)[O-])cc1Cl)c1nc2cc(C)c(C)cc2[nH]c1=O (configuration not stated)
Response line: > 100 µM

Prompt line: Please look at this molecule and report its TGI: C[C@@]12C[C@@H](c3ccccc3O1)N1CCSC1=N2
Response line: > 100 µM

Prompt line: Name the recorded TGI of the molecule listed here: CC(Br)C(=O)c1ccc2cc(Br)c3ccccc3c2c1 (configuration not stated)
Response line: 26.3 µM

Prompt line: Retrieve TGI measured for Nn1c(-c2ccccc2Nc2ccccc2-c2n[nH]c(=S)n2N)n[nH]c1=S and print it.
Response line: > 50 µM

----------
- System: HCT-116 colon
- protocol: NCI tumour cell line growth inhibition, 48 h
reported metric: GI50

Prompt line: Indicate the recorded GI50 value for this compound: Cn1c(=O)c(Sc2ccccc2F)cc2cnc(NC3CCOCC3)nc21
Response line: > 25000 nM

Prompt line: Given the compound N#Cc1cc(-c2ccccc2)[nH]c1-c1nccc2ccccc12 , write its reported GI50.
Response line: 9130 nM

Prompt line: Identify the reported GI50 for the following entry. Clc1ccc(-c2nc(-c3c[nH]c4ncccc34)cs2)cc1
Response line: 52900 nM

Prompt line: Answer with the recorded GI50 of CC(C)[C@@H]1NC(=O)[C@]2(C)CSC(=N2)c2csc(n2)CNC(=O)C[C@@H](/C=C/CCS)OC1=O only.
Response line: 123 nM

Prompt line: Consider the compound Cc1cc(N2CCOCC2)nc(N(CCCNc2ccnc3cc(Cl)ccc23)Cc2ccc3c(c2)OCO3)n1 and give its recorded GI50.
Response line: 464 nM

Prompt line: Let me know recorded GI50 for C[C@H]1O[C@@H](O[C@H]2[C@@H](O)C[C@H](O[C@H]3[C@@H](O)C[C@H](O[C@H]4CC[C@]5(C)C6C[C@@H](O)[C@]7(C)[C@@H](C8=CC(=O)OC8)CC[C@]7(O)C6CC[C@@H]5C4)O[C@@H]3C)O[C@@H]2C)C[C@H](O)[C@@H]1O (stereo partly specified) , thanks.
Response line: 20.7 nM
